Test system: Saccharomyces cerevisiae;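 note: PSI is a weighted mean of sequencing reads over stability bins, variants kept only with over 10 reads, mCherry proximal and sfGFP distal, peptide attached via GGGS linker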
Test: protein stability index of tFT-peptide fusion (C-terminal peptide) (PSI (0-1 scale)); higher = more stable (slower turnover)
Conditions: genetic background: wild type; temperature: 30 C
Examples of sequences with documented protein stability index follow.
Give a plain numeric answer without units written out.

Below: 4 sequences and their reported protein stability index.
sequencetext=FGGFVPSSQCLI testreadout="protein stability index" assayresult=0.712
sequencetext=RGYVGVTQVCKN testreadout="protein stability index" assayresult=0.695
sequencetext=GQVACLVSREYT testreadout="protein stability index" assayresult=0.69
sequencetext=PHPGVPPTFLSL testreadout="protein stability index" assayresult=0.657

Lab note: sequence SATHLLADPAPG tested on Saccharomyces cerevisiae; recorded protein stability index was 0.661

Lab note: sequence PPPLPVFPRPPP tested on Saccharomyces cerevisiae; recorded protein stability index was 0.682

Lab note: sequence RRVRGGAAEKET tested on Saccharomyces cerevisiae; recorded protein stability index was 0.723

Lab note: sequence AGLESFFHYSYF tested on Saccharomyces cerevisiae; recorded protein stability index was 0.749

Lab note: sequence GVRCRLVIRVLG tested on Saccharomyces cerevisiae; recorded protein stability index was 0.316

Value source: the supplement of paper PMC10724198
